- target of assay: T1, Cyk3, Q07533
- T1 sequence (Q07533 1-83, looked up): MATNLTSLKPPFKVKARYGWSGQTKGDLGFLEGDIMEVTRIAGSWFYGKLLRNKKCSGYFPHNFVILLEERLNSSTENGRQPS
- measurement description: SPOT array
- study conditions: median of control spots 1451
measurement type: SPOT intensity

Known results for binders:
VLRFLGFPLPIFEKG	7
PPIPNAPLSPAPAVP	0
RKLRTVPGVPLIHLT	0

1 = NSVPIMPTLPPRPYI
2 = DAPASKPSVPPRNYF
3 = RKNRAPPQRPRFNRE
(Q) Arrange the 3 entries by SPOT intensity so the values rise. Please list the labels according to the requested order.
(A) 2, 1, 3

P = DDEDVPPQLPTRTKS
Q = KRNRLKILLPFLEQS
(Q) // which entry has the larger SPOT intensity value, P or Q ? Which one? Tell me its label.
(A) Q
(Q: 14, P: 0)

a = ERPKRRAPPPVPKKP
b = VPPPMQPPPIESSNL
c = FTLPPPPPPPGLDEL
(Q) Arrange the 3 entries by SPOT intensity so the values rise. Please list the labels according to the requested order.
(A) a, b, c
(a: 0, b: 1, c: 2)

A = LEFRAILFIPKRAPF
B = NMLKKKPLKKPLKRF
(Q) // which entry has the larger SPOT intensity value, A or B ? Which one? Tell me its label.
(A) B
